systemUnderTest: T1, human epidermal growth factor receptor 3 (HER3) (human, UniProt P21860 20-1342)
T1 construct: whole, on cells; also called ErbB3; Erbb3
procedureDetails: flow cytometry on A431 cells
quantityName: EC50

• ADC 22B6-A-07-A-1 (antibody, human IgG1, kappa, V domains shown, drug-linker A-07-A on a cysteine sulfhydryl group; mainly 1 per light chain (LC-DAR1 ratio 0.998); drug-linker A-07-A on cysteine sulfhydryl groups after TCEP reduction; mainly 3 per heavy chain (HC-DAR3 ratio 0.966)) VH: EVHLVESGGGVVQPGRSLRLSCATSGFTFRSYGMHWVRQAPGKGLEWVAVIWYDGSNKYYADSVKGRFTISRDISKNTLYLQMNSLTAEDTAVYYCARYYYDSNGYYDAFDIWGQGTMVTVSS VL: DIQLTQSPSFLSASVGDRVTITCRASQGISNYLAWYQQKPGKAPKLLIFAASTLQSGVPSRFSGSGSGAEFTLTISSLEPEDFATYYCQQLNSYPITFGQGTRLEIKR = 0.0284 µg/mL
